system: HT-29; assay: Cytotoxicity against human HT-29 cells assessed as reduction in cell viability at 30 to 300 uM after 48 hrs under hypoxic condition by MTT assay; type: functional, cell-based
The source made the active and inactive calls. The calls are words filed in the database; no cut-off is given here.
Form entry, call: pick from YES (active), NO (inactive)

{"columns": ["Smiles Str", "Answer Label"],
 "data": [
  ["NS(=O)(=O)c1ccc(CCNC(=[Se])Nc2ccc(I)cc2)cc1", "NO"]
]}

Input: Would you mind telling me which call this test gave `NS(=O)(=O)c1ccc(NC(=O)Nc2ccc(F)cc2)cc1` ?
Output: YES

Input: Check the results log: what was the call for `NS(=O)(=O)c1ccc(NC(=[Se])Nc2ccc(F)cc2)cc1` ?
Output: NO

Input: Recorded test call requested for `NS(=O)(=O)c1ccc(CCNC(=[Se])Nc2ccccc2F)cc1`
Output: NO

====

This document collects Ki values reported for Carbonic anhydrase 9 (Homo sapiens, UniProt Q16790).
The figure you give is taken to be in nM; do not add the unit.

{"columns": ["Smiles Str", "Value Units", "Ki"],
 "data": [
  ["NS(=O)(=O)c1ccc(NC(=[Se])Nc2ccccc2Cl)cc1", "nM", 3.9],
  ["NS(=O)(=O)c1ccc(CCNC(=[Se])Nc2ccc3ccccc3c2)cc1", "nM", 93.1],
  ["NS(=O)(=O)c1ccc(NC(=[Se])Nc2cccc(C(F)(F)F)c2)cc1", "nM", 15.9],
  ["NS(=O)(=O)c1ccc(CCNC(=[Se])Nc2ccccc2)cc1", "nM", 5.3]
]}

Input: // map `NS(=O)(=O)c1ccc(NC(=[Se])Nc2ccccc2F)cc1` to recorded Ki (system: Carbonic anhydrase 9 (Homo sapiens, UniProt Q16790))
Output: 5.8

Input: What is its Ki for Carbonic anhydrase 9 (Homo sapiens, UniProt Q16790)? Entry: `NS(=O)(=O)c1ccc(CCNC(=[Se])Nc2ccccc2F)cc1`
Output: 8.7

Input: Give recorded Ki with Carbonic anhydrase 9 (Homo sapiens, UniProt Q16790) for the following compound: `NS(=O)(=O)c1ccc(CCNC(=[Se])Nc2ccccc2Cl)cc1`
Output: 4.8

Data provenance is ChEMBL document CHEMBL4190361.
